- System: T1, KDM7B PHD-finger (UniProt Q9UPP1-2 1-447)
- T1 chain: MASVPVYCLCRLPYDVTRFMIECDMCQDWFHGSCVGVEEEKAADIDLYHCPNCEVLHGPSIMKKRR
Square brackets hold non-standard residues; d marks the D form. Ends that are not written are not given here. Lys(Me3) = C[N+](C)(C)CCCC[C@H](N)C(=O)O
Measure: IC50 (nM)

P. YYLTHPYPS[Lys(Me3)]FRTC (ends and bridges not checked) [OC9 V10Kme3]
Q. YYLT[dA]PYPSVFRTC (ends and bridges not checked) [OC9 with H5 replaced with D-alanine]
R. YYL[dA]HPYPSVFRTC (ends and bridges not checked) [OC9 with T4 replaced with D-alanine]
Prompt: Sort the entries above numerically by IC50, high end first. API: response body holds the labels in the requested order.
Completion: P, R, Q
